assay: Cytotoxicity against human THLE-2 cells assessed as cell growth inhibition; type: toxicity, cell-based
Assay endpoint: GI50 (µM)
Give a bare numeral; the unit µM is implied.

Chem smiles | GI50 [µM]
CCOC(=O)C1=C(C)NC(C)=C(C(=O)OCC)C1c1cccc2c1OCO2 | 67.8

Pending compound:
q: # query: GI50 of entry COc1cccc2c1C(=O)c1c(O)c3c(c(O)c1C2=O)C[C@@](O)(C(=O)CO)C[C@@H]3O[C@H]1C[C@H](N)[C@H](O)[C@H](C)O1
a: 17.1

###

test: Cytotoxicity against human ECT1/E6E7 cells assessed as cell growth inhibition at 10 uM relative to control; type: toxicity, cell-based; conditions: read-out: GI
Assay endpoint: inhibition at 10 µM

Some solved entries appear below for comparison.
Compound | inhibition at 10 µM
COc1cccc2c1C(=O)c1c(O)c3c(c(O)c1C2=O)C[C@@](O)(C(=O)CO)C[C@@H]3O[C@H]1C[C@H](N)[C@H](O)[C@H](C)O1 [DOXORUBICIN] | 33%
CCC1=C(C)CN(C(=O)NCCc2ccc(S(=O)(=O)NC(=O)N[C@H]3CC[C@H](C)CC3)cc2)C1=O [GLIMEPIRIDE] | 22%
C[C@H]1O[C@H](O[C@H]2[C@H](O)[C@@H](O)[C@@H](O[C@H]3[C@H](O)[C@@H](O)C(O)O[C@@H]3CO)O[C@@H]2CO)[C@H](O)[C@@H](O)[C@@H]1N[C@H]1C=C(CO)[C@@H](O)[C@H](O)[C@H]1O (some centres undefined) [ACARBOSE] | 20.1%

q: # query: inhibition at 10 µM of entry CCOC(=O)C1=C(C)NC(C)=C(C(=O)OCC)C1c1cccc2c1OCO2
a: 18.9%
